Quick record: Ki, ROCK2 (Homo sapiens, UniProt O75116).

Cc1c[nH]c2nccc(Oc3ccc(C[C@H](N)c4nc(-c5ccccc5)no4)cc3F)c12 [Example 1] : 5 to 50 nM
N[C@@H](Cc1ccc(Oc2ccnc3[nH]ccc23)cc1)c1nc(-c2ccccc2)no1 [Example 7] : > 50 nM
Cc1noc([C@@H](N)Cc2ccc(Oc3ccnc4[nH]cc(C)c34)c(F)c2)n1 [Example 3] : 5 to 50 nM
Cc1c[nH]c2nccc(Oc3ccc(C[C@H](N)c4nnc(Cc5ccccc5)o4)cc3F)c12 [Example 9] : < 5 nM

For reference, reported Ki for Cc1c[nH]c2nccc(Oc3ccc(C[C@H](N)c4nc(CCCN(C)C)no4)cc3F)c12 [Example 6] stands at 5 to 50 nM

Every entry's value here was drawn from patent US11578068B2.
